Test: in vivo
Design: species or system BALB/c nude mice
Conditions: mouse, Bone uptake
Numbered stars: 1 amine (or outer) side, 2 acyl side, 3 side chain; on linkers, the order of the positions; unused ones are H or OH. Square brackets hold non-standard residues; d marks the D form. Peptide text beside a SMILES is read from it. * marks the point of attachment. DOTA = O=C(O)CN1CCN(CC(=O)O)CCN(CC(=O)*)CCN(CC(=O)O)CC1; d(γGlu) = O=C(O)[C@@H](CCC(=O)[*:2])N[*:1]; 1Nal = N[C@@H](Cc1cccc2ccccc12)C(=O)O; NMeNle = CCCC[C@H](NC)C(=O)O; PEG4 = NCCOCCOCCOCCOCCC(=O)O
Property measured: tissue uptake at 2 h (%ID/g)
The answer is to be given in %ID/g; state only the numeric part.

Short answer for CCCC[C@@H](C(=O)N[C@@H](CC(=O)O)C(=O)N[C@@H](Cc1cccc2ccccc12)C(N)=O)N(C)C(=O)[C@H](Cc1c[nH]c2ccccc12)NC(=O)CCOCCOCCOCCOCCNC(=O)CC[C@@H](NC(=O)CN1CCN(CC(=O)O)CCN(CC(=O)O)CCN(CC(=O)O)CC1)C(=O)O [[68Ga]Ga-DOTA-CCK-66, metal not drawn, reference compound] ({DOTA-d(γGlu)-PEG4}-W[NMeNle]D[1Nal]-NH2) : tissue uptake at 2 h was 0.1

====

Experiment: in vivo
Parameters: species or system BALB/c nude mice
Settings: mouse, Small intestine uptake
Numbered stars: 1 amine (or outer) side, 2 acyl side, 3 side chain; on linkers, the order of the positions; unused ones are H or OH. Square brackets hold non-standard residues; d marks the D form. Peptide text beside a SMILES is read from it. * marks the point of attachment. DOTA = O=C(O)CN1CCN(CC(=O)O)CCN(CC(=O)*)CCN(CC(=O)O)CC1; d(γGlu) = O=C(O)[C@@H](CCC(=O)[*:2])N[*:1]; 1Nal = N[C@@H](Cc1cccc2ccccc12)C(=O)O; NMeNle = CCCC[C@H](NC)C(=O)O; PEG4 = NCCOCCOCCOCCOCCC(=O)O
Property measured: tissue uptake at 2 h (%ID/g)
The answer is to be given in %ID/g; state only the numeric part.

Short answer for CCCC[C@@H](C(=O)N[C@@H](CC(=O)O)C(=O)N[C@@H](Cc1cccc2ccccc12)C(N)=O)N(C)C(=O)[C@H](Cc1c[nH]c2ccccc12)NC(=O)CCOCCOCCOCCOCCNC(=O)CC[C@@H](NC(=O)CN1CCN(CC(=O)O)CCN(CC(=O)O)CCN(CC(=O)O)CC1)C(=O)O [[68Ga]Ga-DOTA-CCK-66, metal not drawn, reference compound] ({DOTA-d(γGlu)-PEG4}-W[NMeNle]D[1Nal]-NH2) : tissue uptake at 2 h was 0.5

====

Experiment: in vivo
Parameters: species or system BALB/c nude mice
Conditions: female, BALB/c nude, mouse, iv, 3.7 MBq, total radioactivity, Tumor-to-Stomach ratio (T/B)
Experimental: To complement the imaging studies, biodistribution experiments were performed. AR42J tumor-bearing mice were intravenously injected with 3.7 MBq of [^68Ga]Ga-DOTA-CCK2R-dimer (≈ 120 pmol) or [^68Ga]Ga-DOTA-CCK-66 (≈ 210 pmol) (dissolved in 200 μL of saline; n = 3/group). The mice were sacrificed at 30, 60, and 120 min post-injection, and the tissues of interest were excised, weighed, and analyzed for radioactivity using a γ-counter. […]
Numbered stars: 1 amine (or outer) side, 2 acyl side, 3 side chain; on linkers, the order of the positions; unused ones are H or OH. Square brackets hold non-standard residues; d marks the D form. Peptide text beside a SMILES is read from it. * marks the point of attachment. DOTA = O=C(O)CN1CCN(CC(=O)O)CCN(CC(=O)*)CCN(CC(=O)O)CC1; d(γGlu) = O=C(O)[C@@H](CCC(=O)[*:2])N[*:1]; 1Nal = N[C@@H](Cc1cccc2ccccc12)C(=O)O; NMeNle = CCCC[C@H](NC)C(=O)O; PEG4 = NCCOCCOCCOCCOCCC(=O)O
Property measured: tissue to tissue ratio at 1 h
# respond with the number and nothing more

Short answer for CCCC[C@@H](C(=O)N[C@@H](CC(=O)O)C(=O)N[C@@H](Cc1cccc2ccccc12)C(N)=O)N(C)C(=O)[C@H](Cc1c[nH]c2ccccc12)NC(=O)CCOCCOCCOCCOCCNC(=O)CC[C@@H](NC(=O)CN1CCN(CC(=O)O)CCN(CC(=O)O)CCN(CC(=O)O)CC1)C(=O)O [[68Ga]Ga-DOTA-CCK-66, metal not drawn, reference compound] ({DOTA-d(γGlu)-PEG4}-W[NMeNle]D[1Nal]-NH2) : tissue to tissue ratio at 1 h was 5.06
